Catalogue of Kd readings, one per entry.
Target: T1, monomeric recombinant cynomologus monkey Notch3 extracellular domain (containing EGF like domains 1-12) … (cynomologus monkey)
T1 construct: domain: EGF like domains 1-12; also called monomeric rcNotch3
Assay: SPR BIAcore T100, antibody captured by anti-human IgG Fc, monomeric rcNotch3 analyte, 37 C
Field: numeric (nM). Do not append units.

Consider the worked cases shown below.
BINDER	RECORDED NUMBER
Hu4F11-78 (antibody, human IgG1, kappa, V domains shown, Humanized, human IgG1 kappa; Hv3-23 A28T S31H T62S heavy + Kv2D-29 N28Q kappa) VH: EVQLLESGGGLVQPGGSLRLSCAASGFTFSHYDMSWVRQAPGKGLEWVSYISRGGGSTYYPDSVKGRFTISRDNSKNTLYLQMNSLRAEDTAVYYCGRHATTAYWYFDVWGQGTMVTVSS VL: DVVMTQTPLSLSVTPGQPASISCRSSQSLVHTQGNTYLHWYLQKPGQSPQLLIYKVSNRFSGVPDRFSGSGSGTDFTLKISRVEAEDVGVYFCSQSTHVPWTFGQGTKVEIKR	11
Hu4F11-72 (antibody, human IgG1, kappa, V domains shown, Humanized, human IgG1 kappa; Hv3-23 S31H T62S heavy + Kv2D-29 N28H kappa) VH: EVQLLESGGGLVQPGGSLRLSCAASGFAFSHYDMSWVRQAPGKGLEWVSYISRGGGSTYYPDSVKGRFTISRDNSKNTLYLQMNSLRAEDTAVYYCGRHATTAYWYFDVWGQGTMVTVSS VL: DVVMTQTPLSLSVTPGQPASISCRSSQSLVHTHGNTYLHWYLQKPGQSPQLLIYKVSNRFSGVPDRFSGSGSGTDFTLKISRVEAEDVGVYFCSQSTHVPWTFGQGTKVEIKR	9.8

Now, please, on to the next binder.
In: Request the reported Kd associated with Hu4F11-70 (antibody, human IgG1, kappa, V domains shown, Humanized, human IgG1 kappa; Hv3-23 A28T S31H T62S heavy + Kv2D-29 N28H kappa) VH: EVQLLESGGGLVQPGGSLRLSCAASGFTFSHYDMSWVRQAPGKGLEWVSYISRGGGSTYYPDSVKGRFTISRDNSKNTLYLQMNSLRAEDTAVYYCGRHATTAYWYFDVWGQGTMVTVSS VL: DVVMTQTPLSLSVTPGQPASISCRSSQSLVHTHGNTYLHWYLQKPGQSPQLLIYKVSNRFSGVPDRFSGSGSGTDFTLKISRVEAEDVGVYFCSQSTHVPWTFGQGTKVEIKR
Out: 9.1
